TEST_DESCRIPTION: Ratio of inhibitory concentration of Human Jurkat leukemia A (JLA) and Human Jurkat leukemia C (JLC)
Format: functional
IC50 ratio overview
Output: the number by itself.

Some solved cases for reference:
{"columns": ["MOLECULE", "QUANTITY_KIND", "MEASUREMENT"],
 "data": [
  ["CN(C)CCNC(=O)c1cccc2cc3sc4ccccc4c3nc12", "IC50 ratio", 1.5],
  ["CN(C)CCNC(=O)c1cc(Cl)cc2[nH]c3c4ccccc4nc-3nc12", "IC50 ratio", 1.2],
  ["CN(C)CCNC(=O)c1cccc2cc3c(nc12)-c1ccccc1S3(=O)=O", "IC50 ratio", 3.2]
]}

GET /values?readout=IC50 ratio&item= CN(C)CCNC(=O)c1cccc2cc3c(nc12)-c1ccccc1C3=O 1.2

GET /values?readout=IC50 ratio&item= CN(C)CCNC(=O)c1cccc2cc3oc4ccccc4c3nc12 1.2

GET /values?readout=IC50 ratio&item= COc1cc([C@@H]2c3cc4c(cc3[C@@H](O[C@@H]3O[C@@H]5CO[C@@H](C)O[C@H]5[C@H](O)[C@H]3O)[C@H]3COC(=O)[C@H]23)OCO4)cc(OC)c1O [ETOPOSIDE] 13

GET /values?readout=IC50 ratio&item= COc1cccc2c1C(=O)c1c(O)c3c(c(O)c1C2=O)C[C@@](O)(C(=O)CO)C[C@@H]3O[C@H]1C[C@H](N)[C@H](O)[C@H](C)O1 4.4

GET /values?readout=IC50 ratio&item= CN(C)CCNC(=O)c1cccc2nc3c(nc12)oc1ccccc13 1
